experiment: chemical genetic growth profiling, strain panel (AID 1159580);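 also: tested at 20 µM; growth read once vehicle control cultures reached saturation at 30 °C; 1 = growth at the plate median or of vehicle wells; lower values mean less growth of the strain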; settings: S. cerevisiae deletion strains, growth OD, locus YOR231W, strain MKK1
The campaign covered roughly 5,500 compounds. About 2,000 (36%) were called active. Not shown: some 18% with an inconclusive outcome. Rule as the data show it: active = normalized growth mostly below about 0.91 (no sharp cut-off); inconclusive = no clear call, values can overlap the other calls; inactive = mostly above about 0.92. Some of the results follow.
Write down the outcome that applies. Available outcomes: active, inactive

Asked: What is the recorded call for this molecule in the test? CO[C@H]1C[C@H](O[C@H]2[C@H](C)[C@@H](OC3O[C@H](C)C[C@H](N(C)C)[C@H]3O)[C@@H](C)C[C@]3(CO3)C(=O)[C@H](C)[C@@H](O)[C@@H](C)[C@@H](C)OC(=O)[C@@H]2C)O[C@@H](C)[C@@H]1O (stereo partly drawn)
Given back: inactive

Asked: For this molecule, state the assay outcome: CC(C)(C)C1=NN(c2nc3ccc(Cl)cc3s2)C(=O)C1
Given back: active

Asked: What call does the record list for O=C(/C=C/c1ccccc1)O[C@H]1C[C@@H](O)[C@]2(O)C=CO[C@@H](O[C@@H]3O[C@H](CO)[C@@H](O)[C@H](O)[C@H]3O)[C@H]12 ?
Given back: inactive

Asked: Hi, do you know how C=CCc1ccc2c(c1)OCO2 came out in this test?
Given back: inactive

Asked: Could you kindly confirm the outcome this assay logged for COc1c(O)cc2oc3cc(O)c(CC=C(C)C)c(O)c3c(=O)c2c1CC=C(C)C ?
Given back: active

Asked: Called result for COc1ccc(-c2cc(=O)c3c(O)cc(OC)c(OC)c3o2)c(OC)c1
Given back: inactive

Asked: Outcome logged for COc1cc2oc3cc(OC)c(OC)c(CC=C(C)C)c3c(=O)c2c(O)c1CC=C(C)C in this assay:
Given back: inactive

Asked: # outcome recorded in this test, key = C[N+](C)(C)CCOP(=O)([O-])OP(=O)(O)OC[C@H]1OC(n2ccc(N)nc2=O)[C@H](O)[C@@H]1O (stereo partly drawn)
Given back: inactive

###

What normalized growth was measured for each of the following?
assay: chemical genetic growth profiling, strain panel (AID 1159580);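 also: tested at 20 µM; growth read once vehicle control cultures reached saturation at 30 °C; 1 = growth at the plate median or of vehicle wells; lower values mean less growth of the strain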; conditions: S. cerevisiae deletion strains, growth OD, locus YER155C, strain BEM2 (second series), active compounds read low
Out of some 5,500 compounds screened, about 2,000 (36%) were called active. Inconclusive results (about 18%) are left out. Some of the results follow.
Hey, just send me the number, nothing else.

Asked: Name the reported normalized growth value associated with the compound CC(C)CC1C(=O)N2CCC[C@H]2C2(O)O[C@](NC(=O)C3C=C4c5cccc6[nH]c(Br)c(c56)C[C@H]4N(C)C3)(C(C)C)C(=O)N12 (some centres undefined)
Given back: 0.973

Asked: Which normalized growth value belongs to C[C@@H]1O[C@@H](O[C@H]2[C@@H](Oc3cc(O)c4c(c3)O[C@H](c3ccc(O)cc3)CC4=O)O[C@H](CO)[C@@H](O)[C@@H]2O)[C@H](O)[C@H](O)[C@H]1O ?
Given back: 0.972

Asked: Please give the measured normalized growth for this compound: COc1cccc([C@]2(O)CCCC[C@H]2CN(C)C)c1
Given back: 0.97

Asked: Suppose we examine the compound CCCCCCCCCCCCCCCCOP(=O)([O-])OCC[N+](C)(C)C ; what normalized growth value has been reported?
Given back: 0.0842

Asked: For the compound shown here, COc1ccc([C@@H]2CC(=O)c3c(O)cc(O)cc3O2)cc1O , give the reported normalized growth.
Given back: 0.926

Asked: // returns reported normalized growth for input COc1ccc(-c2cc(=O)c3c(O)cc(OC)c(OC)c3o2)c(OC)c1
Given back: 0.956

Asked: Any idea what its normalized growth is? The compound is O=C(O)C1CC([C@@H]2CCCCN2)CN2CCCCC12 (some centres undefined)
Given back: 0.968

Asked: For O=C1CC(c2ccc(O)c(O)c2)Oc2cc(O)cc(O)c21 (centres undefined) , what is its reported normalized growth?
Given back: 0.984

Asked: Which normalized growth value is on record for CCCCCCCC/C=C/CCCCCCCCOP(=O)([O-])OCC[N+](C)(C)C ?
Given back: 0.0793

###

test: chemical genetic growth profiling, strain panel (AID 1159580);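 also: tested at 20 µM; growth read once vehicle control cultures reached saturation at 30 °C; 1 = growth at the plate median or of vehicle wells; lower values mean less growth of the strain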; settings: S. cerevisiae deletion strains, growth OD, locus YGR229C, strain SMI1
Out of some 5,500 compounds screened, about 2,000 (36%) were called active. Another 18% or so got no clear call; they are omitted. No stated cut-off is given here; in the data, active means normalized growth mostly below about 0.91 (no sharp cut-off); inconclusive means no clear call, values can overlap the other calls; inactive means mostly above about 0.92. Some of the results follow.
Could you please pick one outcome from this set? active, inactive

Asked: # fetch the recorded call for OCc1ccccc1O[C@@H]1O[C@H](CO)[C@@H](O)[C@H](O)[C@H]1O here
Given back: inactive

Asked: Called result for C/C=C(/C(=C/C)c1ccc(O)cc1)c1ccc(O)cc1
Given back: active

Asked: # lookup: test call for Oc1ccc(O)cc1
Given back: active

Asked: Can you look up the reported call for COc1c(CC=C(C)C)c2c(c3oc(=O)c(-c4ccc(O)cc4)c(O)c13)C=CC(C)(C)O2 for me?
Given back: active

Asked: Check the results log: what was the call for COc1c2c(c(CC=C(C)C)c3oc(=O)c(-c4ccc(O)cc4)c(O)c13)OC(C)(C)C=C2 ?
Given back: active

###

Can you tell me normalized growth for the items I'm about to list?
test: chemical genetic growth profiling, strain panel (AID 1159580);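 also: tested at 20 µM; growth read once vehicle control cultures reached saturation at 30 °C; 1 = growth at the plate median or of vehicle wells; lower values mean less growth of the strain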; conditions: S. cerevisiae deletion strains, growth OD, locus YLR384C, strain iki3, active compounds read low
Among all 5,500 compounds or so, about 2,000 (36%) were called active. Another 18% or so got no clear call; they are omitted. The list shows a part of the results.
Form: value (number only, do not type unit).

Asked: What value of normalized growth has been recorded for this entry: OCC(O)Cc1ccc2c(c1)OCO2 (stereo unspecified)
Given back: 0.992

Asked: Record request: normalized growth value, item CC(C)[N+](C)(CCOC(=O)C1c2ccccc2Oc2ccccc21)C(C)C
Given back: 1.02

Asked: Data request, read-out normalized growth, for CCSC(=N)N
Given back: 1.02

Asked: If you can, please state the reported normalized growth value of CC(C)[C@H](N)C(=O)OCCOCn1cnc2c(=O)[nH]c(N)nc21 .
Given back: 1.03

Asked: If you can, please state the reported normalized growth value of COC(=O)C1=COC(OC2OC(CO)C(O)C(O)C2O)C2C(C)CC(=O)C12O (stereo unspecified) .
Given back: 0.998

Asked: Need normalized growth, item CCCCCCCCCCCCC[N+](C)(C)Cc1ccccc1
Given back: 0.0574

Asked: Which value of normalized growth has been reported for CC[C@H]1OC(=O)C[C@@H](O)[C@H](C)[C@@H](O[C@@H]2O[C@H](C)[C@@H](O[C@H]3C[C@@](C)(O)[C@@H](O)[C@H](C)O3)[C@H](N(C)C)[C@H]2O)[C@@H](CC=O)C[C@@H](C)C(=O)/C=C/C(C)=C/[C@@H]1CO[C@@H]1O[C@H](C)[C@@H](O)[C@@H](OC)[C@H]1OC in the records?
Given back: 0.991

Asked: Quick one: normalized growth for C1CCc2nnnn2CC1 ?
Given back: 0.999

Asked: Form field: reported normalized growth of COc1ccc2cc1Oc1ccc(cc1)C[C@H]1c3c(cc4c(c3Oc3cc5c(cc3OC)CCN(C)[C@@H]5C2)OCO4)CCN1C
Given back: 1

Asked: Record request: normalized growth value, item Cc1c(N(C)C)c(=O)n(-c2ccccc2)n1C
Given back: 0.991

Asked: State the recorded normalized growth for this entry: COC(=O)[C@@H]1C(O)CC[C@H]2CN3CCc4c([nH]c5ccccc45)[C@@H]3C[C@@H]21 (stereo partly specified)
Given back: 1.02

Asked: Field request: normalized growth | item: CCOC(=O)c1ncn2c1CN(C)C(=O)c1cc(F)ccc1-2
Given back: 1.02

Asked: Please report the recorded normalized growth for C=CCc1ccc2c(c1)OCO2 .
Given back: 1.03

Asked: # input compound: Cc1cc(=O)c2c(O)cc(O)c(C)c2o1 ; wanted: its normalized growth
Given back: 0.942

Asked: Item under review: COc1ccc2c(c1)OC[C@@H](Cc1ccc(OC)c(OC)c1)[C@H]2O . Reported normalized growth?
Given back: 1.01

Asked: Quick check: normalized growth of CC1(C)C2CC[C@]3(C)C(C(=O)C=C4[C@@H]5C[C@@](C)(C(=O)O)CC[C@]5(C)CC[C@]43C)[C@@]2(C)CC[C@@H]1OC(=O)CCC(=O)O (stereo partly specified) ?
Given back: 0.983

Asked: Which measured normalized growth value corresponds to Cc1cc(C(C)(C)CC(C)(C)C)ccc1OCCOCC[N+](C)(C)Cc1ccccc1 ?
Given back: 0.0598

Asked: Fill blank: measured normalized growth of the compound COc1ccc(-c2cc(=O)c3c(O)cc(OC)c(OC)c3o2)c(OC)c1 is ____.
Given back: 1.02

Asked: Given the entry CN1CCc2cc3c(cc2C1O)OCO3 (stereo unspecified) , report its measured normalized growth.
Given back: 0.981

Asked: # get_value(readout='normalized growth', item= CCCCOc1ccc(CC(=O)NO)cc1 )
Given back: 0.991

Asked: // normalized growth lookup, key: S=C=NCc1ccccc1
Given back: 0.101

Asked: Please report the recorded normalized growth for CC1(C)C2CC[C@]3(C)C(C(=O)C=C4[C@@H]5C[C@@](C)(C(=O)O)CC[C@]5(C)CC[C@]43C)[C@@]2(C)CC[C@@H]1O (stereo partly specified) .
Given back: 1.03

Asked: What does the record list as normalized growth for O=[N+]([O-])O[C@H]1CO[C@H]2[C@@H]1OC[C@H]2O[N+](=O)[O-] ?
Given back: 0.981

Asked: Fill blank: measured normalized growth of the compound N#Cc1c(Cl)c(Cl)c(Cl)c(C#N)c1Cl is ____.
Given back: 0.0759

Asked: Sample CNC1(C)C2CCC(C2)C1(C)C (stereo unspecified) — what was its normalized growth?
Given back: 1

Asked: Report normalized growth for C=CC1=C(C(=O)O)N2C(=O)[C@@H](NC(=O)/C(=N/O)c3csc(N)n3)[C@H]2SC1 please.
Given back: 1.02

Asked: Quick one: normalized growth for CNc1ccccc1C(=O)N1CCc2c([nH]c3ccccc23)C1=O ?
Given back: 1.02

Asked: Would you kindly share the measured normalized growth for O=C(/C=C/C=C/c1ccc2c(c1)OCO2)N1CCCCC1 ?
Given back: 0.976

Asked: Consider the compound CC1(C)C2CC[C@]3(C)C(C(=O)C=C4[C@H]5C[C@@](C)(C(=O)O)CC[C@]5(C)CC[C@]43C)[C@@]2(C)CC[C@@H]1O (stereo partly specified) and give its measured normalized growth.
Given back: 1.02

Asked: Fill blank: measured normalized growth of the compound C[CH2][Hg][S]c1ccccc1C(=O)O is ____.
Given back: 0.0582

Asked: Form field: reported normalized growth of CCCCOc1ccc(C(=O)CCN2CCCCC2)cc1
Given back: 0.976

Asked: Data request, read-out normalized growth, for NC/C=C/C(=O)O
Given back: 1.02

Asked: Need normalized growth, item CC(C)N(C(=O)CCl)c1ccccc1
Given back: 1.01

Asked: Consider the compound COc1ccc(C(=O)c2ccccc2)c(O)c1 and give its measured normalized growth.
Given back: 0.843

Asked: Find the recorded normalized growth belonging to COc1ccc2cc1Oc1ccc(cc1)C[C@H]1c3cc(c(OC)cc3CCN1C)Oc1c(OC)c(OC)cc3c1[C@H](C2)N(C)CC3 and report it.
Given back: 1.01

Asked: I have this compound here, OCCN(CCO)c1nc(N2CCCCC2)c2nc(N(CCO)CCO)nc(N3CCCCC3)c2n1 , and I need its recorded normalized growth.
Given back: 0.994

Asked: Value lookup for normalized growth; key = O=C(Cc1ccccc1)NO
Given back: 0.961

Asked: # query: normalized growth of entry CN=C(NC#N)NCCSCc1nc[nH]c1C
Given back: 0.998

Asked: Fill in the blank: the reported normalized growth of CC(=O)O[C@H]1C(=O)[C@@]2(C)C([C@H](OC(=O)c3ccccc3)[C@]3(O)C[C@H](O)C(C)=C1C3(C)C)[C@]1(OC(C)=O)CO[C@@H]1C[C@@H]2O (stereo partly specified) is ____.
Given back: 0.981

Asked: Given the entry CC(=O)O[C@H]1C(=O)[C@@]2(C)C([C@H](OC(=O)c3ccccc3)[C@]3(O)C[C@H](OC(=O)[C@H](O)[C@@H](NC(=O)c4ccccc4)c4ccccc4)C(C)=C1C3(C)C)[C@]1(OC(C)=O)CO[C@@H]1C[C@@H]2O (stereo partly specified) , report its measured normalized growth.
Given back: 0.982

Asked: Entry COc1cc(O)c(C(=O)c2ccccc2)cc1O has what normalized growth?
Given back: 0.996
